This collection of values is drawn from patent US8686150B2.

# study-system: human full-length recombinant PKC βII (Homo sapiens)
# Construct: Active human full-length recombinant PKC βII; purchased Invitrogen GmbH, Darmstadt, Germany
# experiment: Determination of PKC βII inhibition (Caliper mobility-shift kinase assay, Fluorescein-RFARKGSLRQKNV peptide substrate)
# Assay type: biochemical
# recorded-conditions: example compounds at a final concentration of 1.14 μM (±0.15 μM)
measured-property: inhibition at 1.14 µM (%)

Some molecules with recorded inhibition at 1.14 µM:
molecule	inhibition at 1.14 µM / %
Cc1n[nH]c2nc(-c3ccc(O)cc3)cc(C(=O)N3CCN(C(=O)c4ccoc4)CC3)c12 [Example 380]	83
Cc1n[nH]c2nc(-c3ccc(O)cc3F)cc(C(=O)N3C[C@@H](C)N(Cc4ccccn4)C[C@@H]3C)c12 [Example 452]	83
Cc1n[nH]c2nc(-c3ccc(O)cc3)cc(C(=O)NCC3CNC3)c12 [Example 98]	89
Cc1n[nH]c2nc(-c3ccc(O)cc3)cc(C(=O)NC(CN)c3ccccc3)c12 (centres unmarked) [Example 104]	94

a: Cc1n[nH]c2nc(-c3ccc(O)cc3)cc(C(=O)N3CCNCC3)c12 [Example 53]
b: Cc1n[nH]c2nc(-c3ccc(O)c(F)c3)cc(C(=O)N3CCNC(C(F)(F)F)C3)c12 (centres unmarked) [Example 314]
[ask] # query: argmin of inhibition at 1.14 µM over a and b Pick one; state its label.
[reply] b

----------
# study-system: human full-length recombinant PKC βII (Homo sapiens, UniProt P05771)
# Construct: Active human full-length recombinant PKC βII; purchased Invitrogen GmbH, Darmstadt, Germany
# Sequence (P05771 1-673 isoform P05771-2): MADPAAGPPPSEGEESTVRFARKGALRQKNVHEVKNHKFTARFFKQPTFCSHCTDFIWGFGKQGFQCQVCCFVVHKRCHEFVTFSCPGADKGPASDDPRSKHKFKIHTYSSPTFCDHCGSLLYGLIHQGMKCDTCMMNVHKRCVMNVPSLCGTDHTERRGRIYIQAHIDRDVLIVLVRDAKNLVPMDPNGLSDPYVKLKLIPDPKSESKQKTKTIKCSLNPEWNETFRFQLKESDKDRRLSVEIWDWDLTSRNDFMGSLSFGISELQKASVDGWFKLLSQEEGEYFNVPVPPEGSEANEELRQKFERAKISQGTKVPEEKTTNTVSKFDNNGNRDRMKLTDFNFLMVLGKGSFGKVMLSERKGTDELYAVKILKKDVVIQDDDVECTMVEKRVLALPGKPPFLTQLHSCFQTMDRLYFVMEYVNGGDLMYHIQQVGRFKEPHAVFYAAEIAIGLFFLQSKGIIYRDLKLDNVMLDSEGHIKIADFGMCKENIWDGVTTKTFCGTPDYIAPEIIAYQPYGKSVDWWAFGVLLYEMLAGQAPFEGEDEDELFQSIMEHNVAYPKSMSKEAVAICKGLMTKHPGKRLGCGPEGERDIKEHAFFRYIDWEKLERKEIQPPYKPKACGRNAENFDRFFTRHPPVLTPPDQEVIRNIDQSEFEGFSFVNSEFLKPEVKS
# experiment: Determination of PKC βII inhibition (Caliper mobility-shift kinase assay, Fluorescein-RFARKGSLRQKNV peptide substrate)
# Format: biochemical
# recorded-conditions: example compounds at a final concentration of 1.14 μM (±0.15 μM)
measured-property: inhibition at 1.14 µM (%)

Some compounds with recorded inhibition at 1.14 µM:
compound	unit-abbrev	inhibition at 1.14 µM
CCc1n[nH]c2nc(-c3ccc(O)cc3)cc(C(=O)N3CC(N)C3)c12 [Example 160]	%	49
COc1ccc(C2CNCCN2C(=O)c2cc(-c3ccc(O)cc3C)nc3[nH]nc(C)c23)cc1 (centres unmarked) [Example 140]	%	98
CCc1n[nH]c2nc(-c3ccc(O)cc3)cc(C(=O)N3CCCN(CC)CC3)c12 [Example 187]	%	58
CCc1n[nH]c2nc(-c3ccc(O)cc3)cc(C(=O)N3CCNCC3)c12 [Example 3]	%	82

A: Cc1n[nH]c2nc(-c3ccc(O)cc3)cc(C(=O)NC3CCCNC3)c12 (centres unmarked) [Example 242]
B: Cc1n[nH]c2nc(-c3ccc(O)cc3)cc(C(=O)N3CC4(CCNCC4)c4ccccc43)c12 [Example 237]
[ask] Which entry has a larger number for inhibition at 1.14 µM, A or B ? Pick one; state its label.
[reply] A

----------
# study-system: human full-length recombinant PKC βII (Homo sapiens, UniProt P05771)
# Construct: Active human full-length recombinant PKC βII; purchased Invitrogen GmbH, Darmstadt, Germany
# experiment: Determination of PKC βII inhibition (Caliper mobility-shift kinase assay, Fluorescein-RFARKGSLRQKNV peptide substrate)
# Type: biochemical
# recorded-conditions: example compounds at a final concentration of 1.14 μM (±0.15 μM)
measured-property: inhibition at 1.14 µM (%)

molecule	study-system	inhibition at 1.14 µM, %
COC(=O)CC1CNCCN1C(=O)c1cc(-c2ccc(O)cc2)nc2[nH]nc(C)c12 (stereo not shown)	human full-length recombinant PKC βII (Homo sapiens, UniProt P05771)	95
Cc1n[nH]c2nc(-c3ccc(O)c(F)c3)cc(C(=O)N[C@@H]3[C@H]4CC[C@H](C4)[C@H]3CN)c12 (stereo in doubt)	human full-length recombinant PKC βII (Homo sapiens, UniProt P05771)	74
Cc1n[nH]c2nc(-c3ccc(O)cc3)cc(C(=O)NC3CCN(CCc4ccccc4)CC3)c12	human full-length recombinant PKC βII (Homo sapiens, UniProt P05771)	67
Cc1n[nH]c2nc(-c3ccc(O)cc3)cc(C(=O)N3CCC4(CCCNC4)C3)c12 (stereo not shown)	human full-length recombinant PKC βII (Homo sapiens, UniProt P05771)	89
CC[C@H]1CN(C(=O)c2cc(-c3ccc(O)c(F)c3)nc3[nH]nc(C)c23)CCN1	human full-length recombinant PKC βII (Homo sapiens, UniProt P05771)	94

P: CCC1(C)CNC(C)(C)CN1C(=O)c1cc(-c2ccc(O)cc2F)nc2[nH]nc(C)c12 (stereo not shown)
Q: Cc1n[nH]c2nc(-c3ccc(O)cc3)cc(C(=O)N3CCN(C)CC3c3ccccc3)c12 (stereo not shown)
[ask] Which entry has a larger number for inhibition at 1.14 µM, P or Q ? Pick one; state its label.
[reply] P
